B1: LOXL2 (parent)
chain: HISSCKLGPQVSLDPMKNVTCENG

Variants of: B1
Assay: protein stability index of a GFP-peptide fusion (GPS, HEK-293T) (PSI 1-6); higher = more stable;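 also: lentivirally expressed fusions sorted by FACS into six bins by GFP to DsRed ratio, PSI derived from sequencing read proportions per bin multiplied by bin number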
Conditions: c terminus: a fixed tail appended
Please note: t applies when protein stability index is 4 or greater, and f applies otherwise.

>>> cat("T20M")
"f"
>>> cat("M16Y")
"f"
>>> cat("K17V")
"f"
>>> cat("D14A")
"f"
>>> cat("L7V")
"t"
>>> cat("T20R")
"f"
>>> cat("N23H")
"f"
>>> cat("N18G")
"f"

Exam item: Hello, I need to know if C21S has measured protein stability index not below 4. Thanks!
Marked response: t

Exam item: Assess whether reported protein stability index for I2W sits at 4 or higher.
Marked response: f

Exam item: Has K6W a recorded protein stability index greater than or equal to 4?
Marked response: f
